Multiple publications report pIC50 for Galectin-3 (Homo sapiens, UniProt P17931); what follows is a combined list.
pIC50: −log10 of the molar value.

{"record smiles": "CO[C@@H]1[C@@H](n2cc(-c3ccc(C(F)(F)F)c(F)c3)nn2)[C@@H](O)[C@@H](CO)O[C@H]1C(=O)N(c1cc(Cl)cc(Cl)c1)[C@H]1CCCC[C@@H]1O", "pIC50": 7.96}
{"record smiles": "CO[C@@H]1[C@@H](n2cc(-c3ccc(Cl)c(F)c3F)nn2)[C@@H](O)[C@@H](CO)O[C@@H]1Cc1cc(C2(C#N)CCCC2)on1", "pIC50": 6.92}
{"record smiles": "OC[C@H]1O[C@H](CC2=NOC3(CCCCC3)C2)[C@H](OCC(F)F)[C@@H](n2cc(-c3cc(F)c(F)c(F)c3)nn2)[C@H]1O", "pIC50": 6.64}
